Here the recorded EC50 is given for each entry.
- ASSAY SYSTEM: human sphingosine-1-phosphate receptor 1 (S1P1) (Homo sapiens (Human), UniProt P21453)
- PROTOCOL TEXT: β-Arrestin2 recruitment assay (PathHunter), S1P1 CHO-K1 cells
- Assay type: cell-based
- STUDY CONDITIONS: β-arrestin2 recruitment, S1P1 CHO-K1 cells; read-out: hS1P1 B-arrestin2 pEC50 (converted)
- Sequence (P21453 whole entry, looked up): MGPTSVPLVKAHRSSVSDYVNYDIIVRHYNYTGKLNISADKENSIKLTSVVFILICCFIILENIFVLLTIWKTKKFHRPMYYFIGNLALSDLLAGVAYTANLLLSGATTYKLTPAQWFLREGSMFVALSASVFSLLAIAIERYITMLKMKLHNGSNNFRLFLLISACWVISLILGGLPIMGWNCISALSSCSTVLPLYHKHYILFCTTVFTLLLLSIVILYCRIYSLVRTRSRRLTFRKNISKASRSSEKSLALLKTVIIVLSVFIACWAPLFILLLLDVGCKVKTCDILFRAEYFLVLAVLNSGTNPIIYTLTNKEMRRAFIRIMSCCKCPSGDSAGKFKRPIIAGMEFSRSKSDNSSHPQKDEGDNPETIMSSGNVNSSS
- Sequence (P32121 whole entry partner, looked up): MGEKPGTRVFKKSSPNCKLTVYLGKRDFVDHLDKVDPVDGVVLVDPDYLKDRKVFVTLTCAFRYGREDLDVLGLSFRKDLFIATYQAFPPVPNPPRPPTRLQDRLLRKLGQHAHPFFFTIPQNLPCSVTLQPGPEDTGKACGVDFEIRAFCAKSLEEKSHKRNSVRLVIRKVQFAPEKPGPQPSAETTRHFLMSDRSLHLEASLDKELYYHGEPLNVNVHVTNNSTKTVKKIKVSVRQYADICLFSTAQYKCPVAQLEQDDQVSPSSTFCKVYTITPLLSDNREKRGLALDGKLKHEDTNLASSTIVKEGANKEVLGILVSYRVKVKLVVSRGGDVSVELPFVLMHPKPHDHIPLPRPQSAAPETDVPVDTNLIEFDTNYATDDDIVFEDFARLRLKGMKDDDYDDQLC

Cc1cc(-c2noc(-c3ccc4c(c3)nnn4C(C)C)n2)c(C)o1    < 10 µM
C=CCNc1ccc(-c2nc(-c3cn[nH]c3)no2)cc1C#N    < 10 µM
c1ccc(Cc2noc(-c3ccc4c(c3)nnn4C3CCCC3)n2)cc1    > 10 µM
COC(=O)Cn1nnc2cc(-c3noc(-c4ccccc4Br)n3)ccc21    > 10 µM
Cc1ccsc1-c1noc(-c2ccc3c(c2)nnn3C(C)(C)C)n1    < 10 µM

Item O=C(O)Cn1nnc2cc(-c3noc(-c4ccccc4Br)n3)ccc21 was tested on human sphingosine-1-phosphate receptor 1 (S1P1) (Homo sapiens (Human), UniProt P21453); the reported EC50 is > 10 µM

Measured on human sphingosine-1-phosphate receptor 1 (S1P1) (Homo sapiens (Human), UniProt P21453), CC(C)n1nnc2cc(-c3noc(C45C6C7C4C4C5C6C74C(=O)O)n3)ccc21 (stereo not drawn) has a documented EC50 of > 10 µM

Simply: Cc1ccccc1-c1nc(-c2ccc3c(c2)nnn3CC(C)(C)O)no1 , human sphingosine-1-phosphate receptor 1 (S1P1) (Homo sapiens (Human), UniProt P21453), EC50 = < 10 µM

Record COC(=O)C12C3C4C1C1C2C3C41c1nc(-c2ccc3c(c2)nnn3C(C)C)no1 (stereo not drawn) has human sphingosine-1-phosphate receptor 1 (S1P1) (Homo sapiens (Human), UniProt P21453) EC50 equal to > 10 µM

* * *

Listed here: items and their measured Emax.
- ASSAY SYSTEM: human sphingosine-1-phosphate receptor 1 (S1P1) (Homo sapiens (Human))
- PROTOCOL TEXT: β-Arrestin2 recruitment assay (PathHunter), S1P1 CHO-K1 cells
- Assay type: cell-based
- STUDY CONDITIONS: CHO-K1; efficacy (SPAN) normalized to fingolimod; read-out: hS1P1 B-arrestin2 SPAN

Short answer for Cc1ccccc1-c1noc(-c2ccc3c(c2)nnn3C2CCOCC2)n1 [Compound 95] : Emax was < 75%

* * *

- ASSAY SYSTEM: human sphingosine-1-phosphate receptor 1 (S1P1) (Homo sapiens (Human))
- PROTOCOL TEXT: Inhibition of cAMP production (HTRF cAMP HiRange), S1P1 CHO-K1 cells
- Assay type: cell-based
- STUDY CONDITIONS: inhibition of cAMP production, S1P1 CHO-K1 cells
- Sequence (P21453 whole entry, looked up): as the sequence (P21453 whole entry, looked up) above
MEASUREMENT NAME: hS1P1 cAMP pEC50

CCc1ccccc1-c1nc(-c2ccc3c(c2)nnn3C(C)(C)CO)no1    <6.5
COc1ccccc1-c1nc(-c2ccc3c(c2)nnn3C2CCCC2)no1    >6.5
CC(C)n1nnc2cc(-c3nc(-c4ccccc4)no3)ccc21    >6.5

get_value(item= COc1ccccc1-c1noc(-c2ccc3[nH]cnc3c2)n1 , readout=hS1P1 cAMP pEC50) returns <6.5

Query Cc1cn(C)nc1-c1noc(-c2ccc3c(c2)nnn3C(C)C)n1 yields hS1P1 cAMP pEC50 of >6.5

compound Brc1ccccc1-c1nc(-c2ccc3c(c2)nnn3Cc2cccnc2)no1 , hS1P1 cAMP pEC50 observed: <6.5

Value of hS1P1 cAMP pEC50 reported for the compound CCC1(CC)CC(=O)c2cc(-c3nc(-c4ccnc(C)c4)no3)ccc2O1 is >6.5

The recorded hS1P1 cAMP pEC50 for CC(C)n1nnc2cc(-c3nc4c(o3)Cc3ccccc3-4)ccc21 is >6.5

Sample N#Cc1cc(-c2nc(-c3ccc4c(c3)NC(=O)C4)no2)ccc1NCC1CC1 ; hS1P1 cAMP pEC50 observed: >6.5
